Origin of values: PubChem BioAssay (NCI)

Test system: PC-3 prostate
Assay: NCI-60 one-dose screen, 48 h
Conditions: 10 µM unless noted
Compounds without any hit were thinned out: in the full panel of roughly 83,000, 20% have a hit. Calls of active or inactive are those of the source. Rule for the calls: active = growth percent below 10; inactive = the rest.
Classes used: 1 for active, 0 for inactive

>>> classification("CC1=NN(c2cccc(Cl)c2)C(=O)/C1=C\\C=C\\c1ccccc1")
0
>>> classification("CC(C)(C)CC(C)(C)Nc1c(-c2c(O)c3ccccc3oc2=O)nc2sccn12")
0
>>> classification("COC(=O)[C@H](C)NC(=O)c1ccc(NC(=O)c2[nH]c(C)c(Cl)c2Cl)c(OCCN)c1")
0
>>> classification("CCCC1Cc2cc(-n3nc(C)c4c3CC(C)(C)CC4=O)cc(NC3CCC(O)CC3)c2C(=O)N1 (stereo not drawn)")
0
>>> classification("CN1C(=O)N(C)C2C1NN=c1s/c(=C\\c3ccc(F)cc3)c(=O)n12 (stereo not drawn)")
0
>>> classification("C=C1CC[C@@H]2[C@](C)(COC(C)=O)[C@H](OC(C)=O)CC[C@@]2(C)[C@@H]1CC(Nc1ccc(S(=O)(=O)Nc2nccc(C)n2)cc1)C1=CCOC1=O (stereo partly drawn)")
0
>>> classification("CCN1CCN(C(=O)[C@]23CC[C@@H](C)[C@H](C)[C@@H]2C2=CC[C@@H]4[C@@]5(C)C/C(=C/c6ccncc6)C(=O)C(C)(C)[C@@H]5CC[C@@]4(C)[C@]2(C)CC3)CC1")
0
>>> classification("O=C1C2C(c3cccs3)C=C(c3ccc(Cl)cc3)N2C(=S)N1c1ccccc1 (stereo not drawn)")
0
>>> classification("COc1ccc(-c2csc(NC(=O)CSc3nc(C)cc(=O)[nH]3)n2)cc1")
0
>>> classification("CC1OC(C(=O)N2CCN(CCO)CC2)CC1COC1CCCCC1 (stereo not drawn)")
0
>>> classification("O=C(/C=C/c1ccc([N+](=O)[O-])cc1)c1cccc(Nc2nc(Nc3ccccc3)nc(Nc3ccccc3)n2)c1")
0
>>> classification("CC(C)CCc1nc2ccc(NCc3ccc(OCCN4CCC(C)CC4)cc3)cc2[nH]1")
0
>>> classification("COC1CC(O)C2=C(CC3C(/C(C)=C\\CC=C(C)C)CCC3(C)O2)C1=O (stereo not drawn)")
0
>>> classification("CCOC(=O)c1c(NC(=S)Nc2ccc([N+](=O)[O-])cc2)sc2c1CCCCC2")
0
>>> classification("Nc1ncc(-c2ccc3ncnc(N4CCc5cc(F)c(Cl)cc54)c3c2)cc1C(F)(F)F")
0
>>> classification("CN1CCN(Cc2ccc(NC(=O)c3cncc(C#Cc4c(N)ncc5c(F)cccc45)c3)cc2C(F)(F)F)CC1")
1
>>> classification("N#CSCc1cc(Cl)c(CSC#N)cc1Cl")
0
>>> classification("O=C(/C=C/c1ccc(Cl)cc1)c1ccc(-n2cc(CN3CCN(c4cc5c(cc4F)c(=O)c(C(=O)O)cn5C4CC4)CC3)nn2)cc1")
0
